- assayed system: AKAP 79/RII binding
- experiment summary: Scintillation proximity assay of TRX-AKAP 79/3H-RII binding
- stated conditions: read-out: IC50 of inhibition of AKAP 79/RII binding
metric: pIC50
In textbook form, pIC50 equals minus log to base ten of the concentration in mol/L.

stdin: GET /values?readout=pIC50&item= Ht31 peptide: Ht31 peptide (SEQ ID NO:4), blocks anchoring protein binding to RII (DLIEEAAVSRIVDAVIEEVKAAGA) [reference compound]
stdout: 7.30

---

- assayed system: PKC
- experiment summary: PKC activity assay with EGF receptor peptide substrate
- Format: biochemical
- stated conditions: read-out: IC50 of inhibition of PKC activity
metric: IC50

stdin: IC50 lookup needed for peptide containing residues 31-52: synthetic peptide of residues 31-52 of AKAP 79 (KASMLCFKRRKKAAKALKPKAG; UniProt P24588 31-52, looked up, fragment) , thanks.
stdout: 2 µM
